conditions: buffer; pH 7.4; 200.0 µM
reported_metric: solubility kinetic

O=C(CSc1ccccc1)NCCCc1ccccc1 : > 42.8 µg/mL
Cl.Nc1ccc2nc(CCCO)[nH]c2c1 : > 39.6 µg/mL
CC(C(=O)NCc1ccccc1)N1CCN(c2ccc(F)cc2)CC1 (centres undefined) : > 51.2 µg/mL

Now examine the next entry.
Reported solubility kinetic for COC(=O)c1nn(-c2ccc(OC)cc2)ccc1=O : what is it? > 39 µg/mL

* * *

Answer each item with its documented solubility kinetic.
settings: buffer; pH 7.4; 200.0 µM

CC(C)CN(CC(C)C)C(=O)COc1ccccc1C(N)=O : > 46 µg/mL
CC1(C)CC(=O)C=C(Nc2ccccc2)C1 : > 32.3 µg/mL

// lookup solubility kinetic for CCN(C(=O)COC(=O)CNC(=O)c1ccc(Cl)cc1Cl)c1c(N)n(Cc2ccccc2)c(=O)[nH]c1=O > 82.3 µg/mL
